Measured melting point, listed per entry for reference.

1. COc1cc(OC)c(F)c(N2Cc3cnc(NCC(O)CO)nc3N(C3CCCC3)C2=O)c1F (centres unmarked) [Example 14]; 118 to 122 °C

May I ask what melting point has been recorded for `CCN1C(=O)N(c2c(F)c(OC)cc(OC)c2F)Cc2cnc(NCCCN(CCO)CCO)nc21` ?
128 to 129 °C

* * *

RECORDED METRIC: melting point

1) CCN1C(=O)N(c2c(F)c(OC)cc(OC)c2F)Cc2cnc(NCC(O)C(C)O)nc21 (stereo not shown); 171 to 173 °C
2) COc1cc(OC)c(F)c(N2Cc3cnc(NCC(O)C(O)CN)nc3N(C3CCCC3)C2=O)c1F (stereo not shown); 158 °C (dec.)

May I ask what melting point has been recorded for `CCN(CC)CCCCNc1ncc2c(n1)N(C1CCCC1)C(=O)N(c1c(F)c(OC)cc(OC)c1F)C2` ?
132 to 133 °C

May I ask what melting point has been recorded for `COc1cc(OC)c(F)c(N2Cc3cnc(NC(CO)CO)nc3N(C3CCCC3)C2=O)c1` ?
194 to 195 °C

* * *

Measured melting point, listed per entry for reference.

1) COc1cc(OC)c(F)c(N2Cc3cnc(NC[C@@H](O)CO)nc3N(C3CCCC3)C2=O)c1; 89 to 91 °C

May I ask what melting point has been recorded for COc1cc(OC)c(F)c(N2Cc3cnc(NCC(O)CN)nc3N(C3CCCC3)C2=O)c1F (stereo not shown) ?
167 °C (dec.)

May I ask what melting point has been recorded for `COc1cc(OC)c(F)c(N2Cc3cnc(N[C@H]4CC[C@H](O)CC4)nc3N(C3CCCC3)C2=O)c1` ?
108 to 110 °C

May I ask what melting point has been recorded for COc1cc(OC)c(F)c(N2Cc3cnc(NCC(O)C(C)O)nc3N(C3CCCC3)C2=O)c1F (stereo not shown) ?
195 to 196 °C (dec.)

* * *

Measured melting point, listed per entry for reference.

1) CCN1C(=O)N(c2c(F)c(OC)cc(OC)c2F)Cc2cnc(NC3CCC(O)CC3)nc21 (stereo not shown); 198 to 202 °C
2) COc1cc(OC)c(F)c(N2Cc3cnc(NC4CCC(O)CC4)nc3N(C3CCCC3)C2=O)c1F (stereo not shown); 208 to 212 °C (dec.)
3) CCOc1ccc(F)c(N2Cc3cnc(NCCCCN(CC)CC)nc3N(C3CCCC3)C2=O)c1F; 129 to 130 °C
4) CCN1C(=O)N(c2cc(OC)cc(OC)c2F)Cc2cnc(NCCOCCO)nc21; 143 to 146 °C
5) CNc1ncc2c(n1)N(C1CCNCC1)C(=O)N(c1c(F)c(OC)cc(OC)c1F)C2.O=C(O)C(F)(F)F; 135 to 140 °C
6) CCN1C(=O)N(c2c(F)c(OC)cc(OC)c2F)Cc2cnc(NCC(O)CO)nc21 (stereo not shown); 148 to 152 °C
7) CCN(CC)CCCCNc1ncc2c(n1)N(CC)C(=O)N(c1c(F)c(OC)cc(OC)c1F)C2; 140 to 141 °C
8) CCN1C(=O)N(c2cc(OC)cc(OC)c2F)Cc2cnc(NCCCCO)nc21; 129 to 131 °C

May I ask what melting point has been recorded for `COc1cc(OC)c(F)c(N2Cc3cnc(NC[C@H](O)CO)nc3N(C3CCCC3)C2=O)c1` ?
92 to 94 °C

May I ask what melting point has been recorded for `CCN1C(=O)N(c2c(F)c(OC)cc(OC)c2F)Cc2cnc(NCCOCCO)nc21` ?
159 to 160 °C

* * *

Measured melting point, listed per entry for reference.

1) CCN1C(=O)N(c2c(F)c(OC)cc(OC)c2F)Cc2cnc(NCC(O)C(O)CN)nc21 (stereo not shown); 115 °C (dec.)
2) COc1cc(OC)c(F)c(N2Cc3cnc(N)nc3N(C3CCNCC3)C2=O)c1F.O=C(O)C(F)(F)F; 200 to 220 °C (dec.)
3) COc1cc(OC)c(F)c(N2Cc3cnc(NC(CO)CO)nc3N(C3CCCC3)C2=O)c1F; 172 to 174 °C

Next compound, please.
May I ask what melting point has been recorded for `CCN(CC)CCCCNc1ncc2c(n1)N(C1CC1)C(=O)N(c1c(F)c(OC)cc(OC)c1F)C2` ?
139 to 141 °C

* * *

RECORDED METRIC: melting point

Sample answers from the record:
1. COc1cc(OC)c(F)c(N2Cc3cnc(NCC(O)CO)nc3N(C3CCCC3)C2=O)c1F (stereo not drawn) [Example 20]; 179 to 182 °C
2. COc1cc(OC)c(F)c(N2Cc3cnc(NCCOCCO)nc3N(C3CCCC3)C2=O)c1F; 160 to 163 °C
3. CNc1ncc2c(n1)N(C1CCC(C(=O)O)CC1)C(=O)N(c1c(F)c(OC)cc(OC)c1F)C2 (stereo not drawn); 148 °C
4. COc1cc(OC)c(F)c(N2Cc3cnc(NC[C@H](O)[C@@H](O)CO)nc3N(C3CCCC3)C2=O)c1; 86 to 88 °C
5. COc1cc(OC)c(F)c(N2Cc3cnc(NC[C@H](O)[C@@H](O)CO)nc3N(C3CCCC3)C2=O)c1F; 160 °C (dec.)

Next compound, please.
May I ask what melting point has been recorded for `CCN1C(=O)N(c2c(F)c(OC)cc(OC)c2F)Cc2cnc(NC(CO)CO)nc21` ?
168 to 172 °C

Cited source for all entries: patent US7196090B2
